# Experimental system: Serine/threonine-protein kinase NLK (Homo sapiens) (UniProt Q9UBE8)
# Sequence (Q9UBE8 whole entry): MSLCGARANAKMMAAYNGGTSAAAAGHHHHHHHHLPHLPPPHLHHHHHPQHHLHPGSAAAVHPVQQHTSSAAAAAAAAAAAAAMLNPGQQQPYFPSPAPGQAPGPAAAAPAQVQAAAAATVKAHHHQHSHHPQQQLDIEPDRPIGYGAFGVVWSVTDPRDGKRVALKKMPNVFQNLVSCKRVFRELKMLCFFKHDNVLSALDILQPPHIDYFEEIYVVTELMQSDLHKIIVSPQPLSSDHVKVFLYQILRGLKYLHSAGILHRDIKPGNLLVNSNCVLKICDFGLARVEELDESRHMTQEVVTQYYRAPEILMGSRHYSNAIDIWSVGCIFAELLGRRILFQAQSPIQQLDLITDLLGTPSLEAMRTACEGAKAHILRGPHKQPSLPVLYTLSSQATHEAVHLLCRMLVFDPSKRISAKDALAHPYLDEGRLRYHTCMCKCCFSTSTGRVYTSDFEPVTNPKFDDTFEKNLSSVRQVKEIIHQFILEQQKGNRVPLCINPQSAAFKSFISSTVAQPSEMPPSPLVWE
# Condition context: at 10 µM
Response field class: enum, chosen by comparing residual activity against bottom = under 20%, middle = from 20% up to 80%, top = 80% and over

Look over these answered cases.
INSERT INTO assay_data (compound, assigned_category) VALUES
  ('COc1cc(OC)c(/C=C2\C(=O)Nc3ccccc32)c(OC)c1', 'top'),
  ('O=c1[nH]c2ccccc2n1C1CCN(Cc2ccc(-c3nc4cc5[nH]cnc5cc4nc3-c3ccccc3)cc2)CC1', 'top');

// return the class label for C[S+]([O-])c1ccc(-c2nc(-c3ccc(F)cc3)c(-c3ccncc3)[nH]2)cc1 (centres undefined)
middle
